Data origin, for the record: patent US6737383B1

# Test system: corn
# Experiment summary: Test B pre/postemergence corn
# Format: in vivo, Zea mays
# Study conditions: Preemergence, Rate 62 g/ha; scale 0 to 10 (0 no effect, 10 complete control)
In this section we review reported Plant response rating, Corn values for a set of compounds.
Simply state the number, no unit and no words.

>>> recorded_result("CC(C)N(C(=O)n1oc(=O)n(C2(C)CC2)c1=O)c1ccc(Cl)cc1 [Compound 361]")
0

Notebook: CC(C)N(C(=O)n1oc(=O)n(C)c1=O)c1ccc(F)cc1F [Compound 368] , Plant response rating, Corn read as 3

Form: compound = CC1CC1n1c(=O)on(C(=O)N(c2ccc(F)cc2F)C(C)C)c1=O (centres unmarked) [Compound 372] ; Plant response rating, Corn = 2

The reported value for CC(C)N(C(=O)n1oc(=O)n(C(C)C#N)c1=O)c1ccccc1 (centres unmarked) [Compound 435] in terms of Plant response rating, Corn is 0

So for CC(C)N(C(=O)n1oc(=O)n(C2(C)CC2)c1=O)c1ccc(F)cc1F [Compound 363] , the logged Plant response rating, Corn turned out to be 0
